System: SK-MEL-5 melanoma
Assay: NCI tumour cell line growth inhibition, 48 h
// values below are reported TGI

>  <COMPOUND>
O=C1Cc2c(-c3ccccc3)cc(-c3ccccc3)nc2-c2ccccc2N1

>  <TESTED TARGET>
SK-MEL-5 melanoma

>  <UNIT ABBREV>
µM

>  <MEASUREMENT QUALIFIER>
=

>  <TGI>
7.58

$$$$
>  <COMPOUND>
CCOC(=O)/C(Br)=C1\OC(=O)c2ccccc2-c2ccccc21

>  <TESTED TARGET>
SK-MEL-5 melanoma

>  <UNIT ABBREV>
µM

>  <MEASUREMENT QUALIFIER>
>

>  <TGI>
100

$$$$
>  <COMPOUND>
O=CC(OC(=O)c1ccccc1)C(OC(=O)c1ccccc1)C(COC(c1ccccc1)(c1ccccc1)c1ccccc1)OC(=O)c1ccccc1 (stereo not drawn)

>  <TESTED TARGET>
SK-MEL-5 melanoma

>  <UNIT ABBREV>
µM

>  <MEASUREMENT QUALIFIER>
=

>  <TGI>
30.3

$$$$

====

Test system: LXFL 529 NSCLC
Experiment: NCI tumour cell line growth inhibition, 48 h
MEASURED ENDPOINT: TGI

>  <COMPOUND>
CC(Oc1cc2oc(=O)cc(-c3ccccc3)c2cc1Cl)C(=O)O (stereo not given)

>  <MEAS VALUE>
> 100 µM

$$$$
>  <COMPOUND>
NC(CCSCC(F)(F)F)C(=O)O (stereo not given)

>  <MEAS VALUE>
> 100 µM

$$$$
>  <COMPOUND>
CCC(=O)OC1CCn2c1nc1c2C(=O)C(C)=C(NC(C)=O)C1=O (stereo not given)

>  <MEAS VALUE>
2.72 µM

$$$$
>  <COMPOUND>
C/C(=C1/N=C(c2cc([N+](=O)[O-])ccc2Cl)N(c2ccc(Br)cc2)C1=O)c1ccc(N(CCC#N)CCC#N)cc1C

>  <MEAS VALUE>
> 100 µM

$$$$
>  <COMPOUND>
O=c1oc2cc(O)ccc2c2[nH]c3cc(O)ccc3c12

>  <MEAS VALUE>
> 100 µM

$$$$

====

System: HCC-2998 colon
Assay: NCI tumour cell line growth inhibition, 48 h
// values below are reported TGI

>  <MOLECULE>
Cc1cc(N(CCC#N)S(=O)(=O)c2ccccc2)ccc1C=Nc1cccc(C(=O)O)c1

>  <TGI>
> 100 µM

$$$$
>  <MOLECULE>
NC(Cc1ccc(O)cn1)C(=O)NC(C(=O)O)c1ccccc1 (stereo unspecified)

>  <TGI>
> 100 µM

$$$$
>  <MOLECULE>
COc1cccc(N/C(C)=C2/CCOC2=O)c1

>  <TGI>
> 10 µM

$$$$
>  <MOLECULE>
COc1ccccc1-n1cnc2c1NC(C)(C)N=C2C(N)=O

>  <TGI>
> 100 µM

$$$$
>  <MOLECULE>
Clc1ccc(Nc2ncco2)cc1Cl

>  <TGI>
> 10 µM

$$$$
>  <MOLECULE>
Nc1cn(C2OC(CC(c3ccccc3)(c3ccccc3)c3ccccc3)C(O)C2O)c(=O)[nH]c1=O (stereo unspecified)

>  <TGI>
64.4 µM

$$$$

====

Tested on: SF-295 CNS
Experiment: NCI tumour cell line growth inhibition, 48 h; in the data active = GI50 below about 0.43 µM; inactive = the rest
Outcomes: 1 = active, 0 = inactive

>  <COMPOUND>
CC/C=C\C[C@H]1C/C=C2/C(=O)C=C[C@H]2C/C=C\CCCC(=O)O1

>  <TESTED TARGET>
SF-295 CNS

>  <LABEL VALUE>
0

$$$$
>  <COMPOUND>
COc1ccccc1-n1cnc(N)c1C(=O)c1cc(OC)c(OC)c(OC)c1

>  <TESTED TARGET>
SF-295 CNS

>  <LABEL VALUE>
0

$$$$
>  <COMPOUND>
COc1ccc(C(=O)/C=C/c2sc(Cl)nc2Cl)cc1

>  <TESTED TARGET>
SF-295 CNS

>  <LABEL VALUE>
0

$$$$
>  <COMPOUND>
C[C@@H](O)[C@@H](C)Oc1nc(Nc2ccc(S(=N)(=O)C3CC3)cc2)ncc1C(F)(F)F (stereo partly specified)

>  <TESTED TARGET>
SF-295 CNS

>  <LABEL VALUE>
1

$$$$
>  <COMPOUND>
NC(N)=NN=c1c(=O)c2ccccc2c1=O

>  <TESTED TARGET>
SF-295 CNS

>  <LABEL VALUE>
0

$$$$
>  <COMPOUND>
C[C@@H](Nc1nc(N[C@H](C)C(F)(F)F)nc(-c2cccc(Cl)n2)n1)C(F)(F)F

>  <TESTED TARGET>
SF-295 CNS

>  <LABEL VALUE>
0

$$$$
